Assay: qHTS assay to identify small molecule agonists of the sonic hedgehog signaling (Shh) pathway (AID 1259368);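 further: NIH/3T3-derived 3T3Gli1-Luc cells carrying a stable Gli1-driven firefly luciferase reporter; nearly all actives have a fitted effect of over 15% in size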
Settings: NIH/3T3 Gli1-Luc reporter, luciferase, 24 h, hits give high values; series mostly up to 92.4 µM
Active and inactive are the calls of the source. The call rests on the fitted dose curve.
PROPERTY: activity change

Some molecules with known activity change results, for comparison:
[[record]]
molecule = "COCCO"
property = "activity change"
reported_measurement = "inactive"

[[record]]
molecule = "C=C(C)C(=O)OCCOc1ccccc1"
property = "activity change"
reported_measurement = "inactive"

[[record]]
molecule = "O=C(O)c1cn(C2CC2)c2cc(Cl)c(F)cc2c1=O"
property = "activity change"
reported_measurement = "inactive"

[[record]]
molecule = "CC(=O)SCc1ccco1"
property = "activity change"
reported_measurement = "inactive"

[[record]]
molecule = "CCCOc1ccc2nc(NC(=O)OC)[nH]c2c1"
property = "activity change"
reported_measurement = "inactive"

[[record]]
molecule = "Cc1cc(C)c(S(=O)(=O)O)cc1N=Nc1cc(S(=O)(=O)O)c2ccccc2c1O"
property = "activity change"
reported_measurement = "inactive"

[[record]]
molecule = "O=C(Cl)c1ccc([N+](=O)[O-])cc1"
property = "activity change"
reported_measurement = "inactive"

[[record]]
molecule = "CCCC(C)C"
property = "activity change"
reported_measurement = "inactive"


Kindly give each listed record's activity change.
1. O=C(NS(=O)(=O)/C=C/c1cccs1)c1ccc(F)cc1Br
2. CC(=O)N(CC(=O)N(C)C)c1ccccc1
3. C=CC(C)(CCC=C(C)C)OC(=O)c1ccccc1 (stereo not given)
4. CCCCCCCC/C=C\CCCCCCCC(N)=O
5. CC(=O)N(O)CCCCCNC(=O)CCC(=O)N(O)CCCCCNC(=O)CCC(=O)N(O)CCCCCN
6. c1ccc(OCc2ccc(CCCN3CCOCC3)cc2)cc1

A:
inactive
inactive
inactive
inactive
inactive
inactive

====

Experiment: qHTS assay for identifying genotoxic compounds that show differential cytotoxicity against isogenic chicken DT40 cell lines with known DNA damage response pathways - Rad54/Ku70 mutant cell line (AID 743015); further: nearly all actives have a fitted effect of over 60% in size
Details: DT40 Rad54/Ku70 mutant viability, CellTiter-Glo, 40 h; series mostly up to 66.8 µM
Inconclusive results are not listed. Calls of active or inactive are those of the source. Calls come from the whole dose curve; as a rule, active = well fitted cell-killing curve with a large enough effect in the repeat runs; inconclusive = weak or mixed curves; inactive = no such curve, though single readings can be large or run the other way.
Outcome field: choose from yes (active), no (inactive)

[[record]]
compound = "CC(C)(C)c1cc(CO)cc(C(C)(C)C)c1O"
category_label = "yes"

[[record]]
compound = "CCCCCCCC/C=C\\CCCCCCCC(N)=O"
category_label = "no"

[[record]]
compound = "O=C(Cl)c1c(Cl)cccc1Cl"
category_label = "no"

[[record]]
compound = "NC(=S)N/N=C/c1cccnc1"
category_label = "no"

[[record]]
compound = "CCN(CC)CCOC(=O)C1(c2ccccc2)CCCC1"
category_label = "yes"

[[record]]
compound = "C1=Cc2ccccc2C1"
category_label = "no"

[[record]]
compound = "CNCC[C@@H](Oc1ccccc1C)c1ccccc1"
category_label = "yes"

[[record]]
compound = "N[C@H]1C(O)O[C@H](CO)[C@H](O)[C@@H]1O (some centres undefined)"
category_label = "no"


Now take the following compound into account.
Q: # outcome recorded in this test, key = COCCO
A: no

====

Assay: qHTS assay to identify small molecule antagonists of the sonic hedgehog signaling (Shh) pathway - cell viability counter screen (AID 1259367); further: nearly all actives have a fitted effect of over 55% in size
Details: NIH/3T3 Gli1-Luc viability, CellTiter-Fluor, 24 h; series mostly up to 92.4 µM
Results filed as inconclusive are left out. Active and inactive are the calls of the source. Calls come from the whole dose curve; as a rule, active = well fitted cell-killing curve with a large enough effect in the repeat runs; inconclusive = weak or mixed curves, or effect the other way; inactive = no such curve, though single readings can be large or run the other way.
Outcome field: choose from 1 (active), -1 (inactive)

Observe how each entry below is paired with its result.
[[record]]
compound = "CC(=O)CC(=O)c1ccccc1"
category_label = -1

[[record]]
compound = "NC(N)=N/N=C/c1c(Cl)cccc1Cl"
category_label = 1


Q: # outcome recorded in this test, key = CC(=O)N(O)CCCCCNC(=O)CCC(=O)N(O)CCCCCNC(=O)CCC(=O)N(O)CCCCCN
A: -1

Q: # outcome recorded in this test, key = CCc1nn(C2CCCCC2)c2cc(C3(C#N)CCC(C(=O)O)CC3)ccc12 (stereo not given)
A: 1

Q: # outcome recorded in this test, key = CCOC(=O)CC(C)C
A: -1

Values from PubChem BioAssay (Tox21)
